B1: library; a variant is named by its letters at X, in order (parent)
chain: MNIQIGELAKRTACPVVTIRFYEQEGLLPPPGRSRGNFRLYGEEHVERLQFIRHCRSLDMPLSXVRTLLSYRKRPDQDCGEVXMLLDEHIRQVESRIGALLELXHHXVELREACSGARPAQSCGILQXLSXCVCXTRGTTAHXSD

# Variants of: B1
# Protocol notes: sfGFP reporter fluorescence (15 h) (µM FITC); higher = stronger transcriptional activation
# Condition description: library round: Round 3; ligand: 30 µM Zn
Classify as follows. Reported sfGFP reporter fluorescence greater than or equal to 2: rule met. Reported sfGFP reporter fluorescence below: rule not met.

MNIQIGELAKRTACPCVTIRFYEQEGLLPPPGRSRGNFRLYGEEHVERLQFIRHCRSLDMNLSKVRTLLSYRKRPDQDCGEVNMLLDEHIRQVESRIGALLELVHHCVELREACSGARPAQSCGILQMLSDCVCDTRGTTAHPSD [KNVCMDDP V16C P61N]	rule not met
MNIQIGELAKRTACPCVTIRFYEQEGLLPPPGRSRGNFRLYGEEHVERLQFIRHCRSLDVPLSLVRTLLSYRKRPDQDCGAVIMLLDEHIRQVESRIGALLELKHHLVELAEACSGARPAQSCGILQGLSDCVCDTRGTTAHPSD [LIKLGDDP V16C M60V E81A R111A]	rule not met
MNIQIGELAKRTACPVVTIRFYEQEGLLPPPGRSRGNFRLYGEEHVERLQFIRHCRSLDMPLSKVRTLLSYRKRPDQDCGEVIMLLDEHIRQVESRIGALLELVHHCVELREACSGARPAQSCGILQMLSDCVCDTRGTTAHPSD [KIVCMDDP]	rule not met
MNIQIGELAKRTACPVVTIRFYEQEGLLPPPGRSRGNFRLYGEEHVERLQFIRHCRSLDMPLSDVRTLLSYRKRPDQDCGEVVMLLDEHIRQVESRIGALLELVHALVELREACSGARPAQSCGILQGLSDCVCDTRGTTAHRSD [DVVLGDDR H106A]	rule not met
MNIQIGELAKRTACPVVTIRFYEQEGLLPPPGRSRGNFRLYGEEHVERLQFIRHCRSLDMPLSKVRTLLSYRKRPDQDCGEVNMLLDEHCRQVESRIGALLELVHALVELREACSGARPAQSCGILQGLSDCVCDTRGTTAHRSD [KNVLGDDR I90C H106A]	rule not met
MNIQIGELAKRTACPVVTIRFYEQEGLLPPPGRSRGNFRLYGEEHVERLQFIRHCRSLDMPLSDVRTLLSYRKRPDQDCGEVNMLLDEHIRQVESRIGALLELRHHCVELREACSGARPAQSCGILQILSDCVCATRGTTAHKSD [DNRCIDAK]	rule met
MNIQIGELAKRTACPVVTIRFYEQEGLLPPPGRSRGNFRLYGEEHVERLQFIRHCRSLDMNLSKVRTLLSYRKRPDQDCGEVNMLLDEHIRQVESRIGALLELRHHCVELREACSGARPAQSCGILQMLSDCVCDTRGTTAHPSD [KNRCMDDP P61N]	rule met
